# Test system: Jurkat FADD-/- TNF-alpha necroptosis, CellTiter-Glo ATP, 24 h
# assay: inhibitors of TNF-alpha triggered necroptosis, potency, dose response, cell-based, Jurkat FADD-/-, duplicate IC50 (AID 463178)
Calls of active or inactive are those of the source.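 The calls were made as follows: active = IC50 below a set limit in both duplicate runs and mean IC50 below a set limit; inconclusive = IC50 above a set limit in only one run; inactive = IC50 above a set limit in both runs and mean.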
Answer with one of the outcomes given here: active, inactive

> print(dat)
                                   compound  category.label
1                 O=C1c2ccsc2SCCN1Cc1ccccc1          active
2                COCCNS(=O)(=O)c1ccc(SC)cc1          active
3  O=C(CSc1ccc(Cl)cc1)N1N=CCC1c1ccccc1 (configuration not stated)          active
4  COc1ccc(-n2cnc3cc(NS(=O)(=O)c4ccccc4)ccc32)cc1        inactive

Request: Call for entry COc1ccc(/C=C2\N=C(SC)NC2=O)cc1 :
Response: inactive

Request: Now the same for Cc1ccc(C(=O)NC(C#N)=C(Cl)Cl)cc1
Response: inactive

Request: Try the compound O=C(NNc1c(Cl)cccc1Cl)C1CCC1
Response: active

Request: Entry COc1ccc(-n2c(C)nc3sc4c(c3c2=O)CCCC4)cc1 please
Response: active

Request: Also CC(C)c1ccc(O)c(NC(=O)c2cncc(Br)c2)c1 , if possible.
Response: inactive

---

# Tested on: Jurkat FADD-/- TNF-alpha necroptosis, CellTiter-Glo ATP, 24 h
# assay: inhibitors of TNF-alpha triggered necroptosis, potency, dose response, cell-based, Jurkat FADD-/-, duplicate IC50 (AID 463178)
Active and inactive are the calls of the source.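 The calls were made as follows: active = IC50 below a set limit in both duplicate runs and mean IC50 below a set limit; inconclusive = IC50 above a set limit in only one run; inactive = IC50 above a set limit in both runs and mean.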
Response enum: True (active), False (inactive)

> print(dat)
                                   molecule                             system.tested  category.label
1  COc1ccc(C2CN=NC2C(=O)c2ccccc2)cc1 (stereo unspecified)  Jurkat FADD-/- TNF-alpha necroptosis, CellTiter-Glo ATP, 24 h            True
2  O=C(CSc1nnnn1-c1ccccc1)N1N=CCC1c1ccccc1 (stereo unspecified)  Jurkat FADD-/- TNF-alpha necroptosis, CellTiter-Glo ATP, 24 h            True
3               COc1ccc(/C=N/Nc2ccccn2)cc1O  Jurkat FADD-/- TNF-alpha necroptosis, CellTiter-Glo ATP, 24 h            True
4        O=[N+]([O-])c1ccc(Nc2ccc(F)cc2)nc1  Jurkat FADD-/- TNF-alpha necroptosis, CellTiter-Glo ATP, 24 h            True
5  CCC(C)c1ccc(O)c(NC(=O)c2cncc(Br)c2)c1 (stereo unspecified)  Jurkat FADD-/- TNF-alpha necroptosis, CellTiter-Glo ATP, 24 h           False

With those in mind, consider the next molecule.
Request: Assay result, entry COC(C(=O)Nc1ccc(Br)cc1F)c1ccccc1 (stereo unspecified) — outcome?
Response: True

---

The entries below are paired with their reported IC50.
# Tested on: Jurkat FADD-/- TNF-alpha necroptosis, CellTiter-Glo ATP, 24 h
# assay: inhibitors of TNF-alpha triggered necroptosis, potency, dose response, cell-based, Jurkat FADD-/-, duplicate IC50 (AID 463178)
Active and inactive are the calls of the source.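 The calls were made as follows: active = IC50 below a set limit in both duplicate runs and mean IC50 below a set limit; inconclusive = IC50 above a set limit in only one run; inactive = IC50 above a set limit in both runs and mean.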

// below: answered compounds
> print(dat)
                               given.smiles            observed
1  Cc1ccc(Oc2ccccc2/C=C2\SC(=O)N(C)C2=O)cc1  > 20 µM (inactive)
2           O=[N+]([O-])c1ccc(Nc2ccccc2)nc1             15.3 µM

Request: Can you look up the measured IC50 of O=C(Nc1nccs1)c1ccc(S(=O)(=O)N2CCCCC2)cc1 for me?
Response: > 20 µM (inactive)

Request: How about O=C(Cn1cnc2ccc(Cl)cc2c1=O)c1cccs1 ?
Response: > 20 µM (inactive)

Request: Queued: Cc1ccc(C)c(C2=NNC(=NCc3ccccc3)SC2)c1
Response: 15.2 µM

Request: Here is the next compound: Clc1ccc2[nH]c3c(c2c1)CCc1cn[nH]c1-3
Response: 5.28 µM

---

# Test system: Jurkat FADD-/- TNF-alpha necroptosis, CellTiter-Glo ATP, 24 h
# assay: inhibitors of TNF-alpha triggered necroptosis, potency, dose response, cell-based, Jurkat FADD-/-, duplicate IC50 (AID 463178)
Active and inactive are the calls of the source.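 The calls were made as follows: active = IC50 below a set limit in both duplicate runs and mean IC50 below a set limit; inconclusive = IC50 above a set limit in only one run; inactive = IC50 above a set limit in both runs and mean.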
// classify into True (active), False (inactive)

Request: # fetch the recorded call for Cc1ccc(CN2CCSc3sccc3C2=O)cc1 here
Response: True

Request: Now give it for O=S(=O)(c1cccc2cccnc12)N1CCN(c2ccc(F)cc2)CC1 too.
Response: False

Request: Repeat for the following molecule: Cc1csc(SCC(=O)NC(=O)NC2CCCC2)n1
Response: True

Request: Next up: O=C(Nc1ccc(Cl)cc1)N1N=CCC1c1ccccc1 (configuration not stated)
Response: True

Request: Same thing, different molecule: Cc1cc([N+](=O)[O-])nn1Cc1ccc(F)cc1
Response: True

Request: Item: COC(C(=O)Nc1ccc(S(=O)(=O)N2CCCCC2)cc1)c1ccccc1 (configuration not stated)
Response: False

---

Entries annotated with measured IC50
# Tested on: Jurkat FADD-/- TNF-alpha necroptosis, CellTiter-Glo ATP, 24 h
# assay: inhibitors of TNF-alpha triggered necroptosis, potency, dose response, cell-based, Jurkat FADD-/-, duplicate IC50 (AID 463178)
Activity calls are given as the source filed them.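 The calls were made as follows: active = IC50 below a set limit in both duplicate runs and mean IC50 below a set limit; inconclusive = IC50 above a set limit in only one run; inactive = IC50 above a set limit in both runs and mean.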

Request: I would be grateful if you could share the reported IC50 for O=C(Nc1ncc(Cc2ccccc2)s1)C1COc2ccccc2O1 (stereo not drawn) .
Response: > 20 µM (inactive)

Request: Now try O=C(Cc1c(F)cccc1Cl)Nc1ncc([N+](=O)[O-])s1 .
Response: > 20 µM (inactive)

Request: Then this compound: Cc1csc(Nc2ccc(Cl)cc2)[n+]1-c1ccc(Cl)cc1
Response: > 20 µM (inactive)

---

# System: Jurkat FADD-/- TNF-alpha necroptosis, CellTiter-Glo ATP, 24 h
# assay: inhibitors of TNF-alpha triggered necroptosis, potency, dose response, cell-based, Jurkat FADD-/-, duplicate IC50 (AID 463178)
Calls of active or inactive are those of the source.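 The calls were made as follows: active = IC50 below a set limit in both duplicate runs and mean IC50 below a set limit; inconclusive = IC50 above a set limit in only one run; inactive = IC50 above a set limit in both runs and mean.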
Write down the outcome that applies. Available outcomes: true (1) (active), false (0) (inactive)

Solved entries:
> print(dat)
                                   molecule  category.label
1       O=[N+]([O-])c1ccc(Nc2ccc(Cl)cc2)nc1       false (0)
2  O=C(Nc1ccccc1)N1N=CCC1c1ccccc1 (stereo unspecified)        true (1)
3  O=C(CSCc1ccc([N+](=O)[O-])cc1)NC1CC2CCC1C2 (stereo unspecified)        true (1)
4        Cc1ccc2[nH]c3c(c2c1)CCc1cn[nH]c1-3        true (1)
5         O=S(=O)(Nc1ccccc1)c1ccc2c(c1)CCO2        true (1)
6  O=C1NC(Cc2c[nH]c3ccccc23)C(=O)N1CCOc1ccc(F)cc1 (stereo unspecified)        true (1)
7             Clc1cccc(Cl)c1Cn1ccc(C2CC2)n1        true (1)
8  Cc1cnc(NC(=O)C2COc3ccccc3O2)s1 (stereo unspecified)       false (0)

Shift focus to the following entry.
Request: Returns: the outcome recorded for O=[N+]([O-])c1ncn(Cc2ccccc2Cl)n1 in this assay.
Response: true (1)

---

# Tested on: Jurkat FADD-/- TNF-alpha necroptosis, CellTiter-Glo ATP, 24 h
# assay: inhibitors of TNF-alpha triggered necroptosis, potency, dose response, cell-based, Jurkat FADD-/-, duplicate IC50 (AID 463178)
The source made the active and inactive calls.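 The calls were made as follows: active = IC50 below a set limit in both duplicate runs and mean IC50 below a set limit; inconclusive = IC50 above a set limit in only one run; inactive = IC50 above a set limit in both runs and mean.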
Return exactly one item of YES (active), NO (inactive)

Examples from the recorded data:
> print(dat)
                                   compound  category.label
1  CC(=O)N(CC1CCCO1)c1nnc(-c2ccccn2)s1 (configuration not stated)             YES
2              CCn1c(O)c(C=NCc2ccccc2)sc1=S              NO
3  COC(C(=O)Nc1ccc(F)cc1F)c1ccccc1 (configuration not stated)             YES
4        Clc1ccc(C2=NNC(=NCc3ccccc3)SC2)cc1              NO
5     Cc1ccc(Cn2cnc3sc4c(c3c2=O)CCC4)c(C)c1              NO
6       CN=C(Cc1ccccc1)C1=C(O)CC(C)(C)CC1=O             YES

Attention now shifts to the item below.
Request: Could you kindly confirm the outcome this assay logged for COC(=O)c1ccn(Cc2ccccc2Cl)n1 ?
Response: YES

---

# Test system: Jurkat FADD-/- TNF-alpha necroptosis, CellTiter-Glo ATP, 24 h
# assay: inhibitors of TNF-alpha triggered necroptosis, potency, dose response, cell-based, Jurkat FADD-/-, duplicate IC50 (AID 463178);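 active = IC50 below a set limit in both duplicate runs and mean IC50 below a set limit; inconclusive = IC50 above a set limit in only one run; inactive = IC50 above a set limit in both runs and mean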
Write down the outcome that applies. Available outcomes: 1.0 for active, 0.0 for inactive

Request: # outcome recorded in this test, key = Cc1ccc(SCC(=O)N2N=CCC2c2ccccc2)cc1 (configuration not stated)
Response: 1.0

Request: And then Cc1nnsc1C(=O)NNc1c(Cl)cccc1Cl , what is it?
Response: 1.0
